Data origin, for the record: ChEMBL document CHEMBL1123840

species: Cavia porcellus; experiment: Reversible opioid agonist activity in the electrically stimulated guinea pig ileum(GPI) at 1 uM concentration (Exp 2); type: functional
Square brackets hold non-standard residues; d marks the D form. Peptide text beside a SMILES is read from it. * marks the point of attachment. Tyr(Nα,Nα-Bn2) = O=C([C@H](Cc1ccc(O)cc1)N(Cc1ccccc1)Cc1ccccc1)*; Aib = CC(C)(N)C(=O)O
Quantity Measured: IC50

>>> recorded_measurement("CC(C)C[C@H](NC(=O)[C@H](Cc1ccccc1)NC(=O)C(C)(C)NC(=O)C(C)(C)NC(=O)[C@H](Cc1ccc(O)cc1)N(Cc1ccccc1)Cc1ccccc1)C(=O)O ({Tyr(Nα,Nα-Bn2)}-[Aib][Aib]FL-OH)")
"0.3 µM"
